Source listed as patent US20260356824A1.

# testProtocol: Liver microsomal stability, rat
# Assay type: in vitro ADME
# conditionDescription: rat liver microsomes; 30 min; percent of parent remaining; read-out: Liver Microsomal stability (%), % of remaining after 30 min, Rat
parameter: remaining at 0.5 h

Field remaining at 0.5 h (entry Cc1nc(C2(C(=O)O)CC2)ccc1N1CCC(c2onc(C)c2NC(=O)O[C@H](C)c2ccccc2)CC1 [Compound 62] ) reads > 75%

Field remaining at 0.5 h (entry Cc1noc(C2CCN(c3ccc(C4(C(=O)NS(=O)(=O)CCCO)CC4)cc3)CC2)c1NC(=O)O[C@H](C)c1ccccc1 [Compound 85] ) reads 50 to 75%

Field remaining at 0.5 h (entry Cc1noc(C2CCN(c3ccc(C4(C(=O)NS(C)(=O)=O)CC4)cc3)CC2)c1NC(=O)O[C@H](C)c1ccccc1 [Compound 12] ) reads 50 to 75%

* * *

# testProtocol: Liver microsomal stability, human
# Format: in vitro ADME
# conditionDescription: human liver microsomes; 30 min; percent of parent remaining; read-out: Liver Microsomal stability (%), % of remaining after 30 min, Human
parameter: remaining at 0.5 h

Solved entries (count: 3):
compound | parameter | result
CNS(=O)(=O)NC(=O)C1(c2ccc(N3CCC(c4onc(C)c4NC(=O)O[C@H](C)c4ccccc4)CC3)cc2)CC1 | remaining at 0.5 h | > 75%
Cc1noc(C2CCN(c3ccc(C4(C(=O)O)CC4)cc3)CC2)c1CNC(=O)O[C@@H](C)c1ccccc1 | remaining at 0.5 h | > 75%
Cc1noc(C2CCN(c3ccc(C4(C(=O)NS(=O)(=O)C(C)(C)CO)CC4)cc3)CC2)c1NC(=O)O[C@H](C)c1ccccc1 | remaining at 0.5 h | > 75%

Turning now to a further record.
Field remaining at 0.5 h (entry Cc1noc([C@@H]2CCN(c3ccc(C4(C(=O)O)CC4)cc3)[C@H](C)C2)c1NC(=O)O[C@H](C)c1ccccc1 (single isomer, unassigned) ) reads > 75%

* * *

Below is a list of entries, each paired with its recorded pIC50 value.
# testedTarget: hLPAR1 (Homo sapiens, UniProt Q92633)
# Sequence (Q92633 whole entry): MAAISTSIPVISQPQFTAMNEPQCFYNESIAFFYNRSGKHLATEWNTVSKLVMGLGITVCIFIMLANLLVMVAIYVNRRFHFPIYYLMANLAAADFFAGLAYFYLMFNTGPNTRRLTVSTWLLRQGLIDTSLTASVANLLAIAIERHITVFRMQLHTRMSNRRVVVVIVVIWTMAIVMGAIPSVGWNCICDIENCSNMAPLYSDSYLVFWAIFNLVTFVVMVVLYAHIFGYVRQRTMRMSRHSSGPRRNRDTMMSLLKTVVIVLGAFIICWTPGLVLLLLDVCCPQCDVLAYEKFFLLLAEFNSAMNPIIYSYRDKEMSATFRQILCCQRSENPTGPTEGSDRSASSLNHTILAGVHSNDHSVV
# testProtocol: Ca2+ Flux Assay (B103 cells stably expressing hLPAR1)
# conditionDescription: LPA-induced calcium release, Fura-2 AM, compound 20 min at RT
# Description: B103 cells stably expressing hLPAR1 were seeded at a density of 1.0×10^5 cells per well in clear flat-bottom black 96-well plates and incubated overnight in complete media. The following day, the cells were pre-incubated in serum-free media for 2 hours prior to ensure cellular equilibration. […] Intracellular calcium mobilization was subsequently quantified by monitoring the fluorescence intensity using the Spark® multimode microplate reader (TECAN).
pIC50: −log10 of the molar value.

Solved entries (count: 8):
compound | parameter | result
Cc1nnn(C2CCN(c3ccc(C4(C(=O)O)CC4)cc3)CC2)c1NC(=O)O[C@H](C)c1ccccc1Cl | pIC50 | > 8.00
Cc1ccccc1[C@@H](C)OC(=O)Nc1c(C)noc1C1CC2(C1)CN(c1ccc(C3(C(=O)O)CC3)cc1)C2 | pIC50 | > 8.00
Cc1ccccc1[C@@H](C)OC(=O)Nc1c(C2CCN(c3ccc(C4(C(=O)O)CC4)cc3)CC2)cnn1C | pIC50 | 6.70 to 8.00
COc1cc(C2(C(=O)NS(=O)(=O)CCC(=O)O)CC2)ccc1N1CCC(c2onc(C)c2NC(=O)O[C@H](C)c2ccccc2)CC1 | pIC50 | > 8.00
Cc1noc(C2CCN(c3ccc(C4(C(=O)O)CC4)cc3)CC2)c1NC(=O)[C@H](O)c1ccccc1 | pIC50 | 5.52 to 6.70
Cc1noc(C2CCN(c3ccc(C4(C(=O)NS(=O)(=O)C(C)CC(=O)O)CC4)cc3)CC2)c1NC(=O)O[C@H](C)c1ccccc1 (stereo partly drawn) | pIC50 | > 8.00
Cc1noc(C2CCN(c3ccc(C4(C(=O)O)CC4)cc3)CC2)c1NC(=O)O[C@H](C)c1ccccc1C(C)(C)F | pIC50 | 6.70 to 8.00
Cc1noc(C2CCN(c3ccc(C4(C(=O)NS(=O)(=O)CC(C)CO)CC4)cc3)CC2)c1NC(=O)O[C@H](C)c1ccccc1 (stereo partly drawn) | pIC50 | > 8.00

Field pIC50 (entry Cc1noc(C2CCN(c3ccc(C4(C(=O)OCc5oc(=O)oc5C)CC4)cc3)CC2)c1NC(=O)O[C@H](C)c1ccccc1 ) reads > 8.00

Field pIC50 (entry Cc1noc(C2CCN(c3ccc(C4(C(=O)NS(=O)(=O)C5(C(=O)O)CC5)CC4)cc3)CC2)c1NC(=O)O[C@H](C)c1ccccc1 ) reads > 8.00

Field pIC50 (entry CNC(=O)C1(c2ccc(N3CCC(c4onc(C)c4NC(=O)O[C@H](C)c4ccccc4)CC3)cc2)CC1 ) reads 6.70 to 8.00

* * *

Below is a list of entries, each paired with its recorded inhibition at 0.25 h, 10 µM value.
# testedTarget: BSEP (Homo sapiens)
# Construct: ATP-dependent uptake of radiolabelled probe substrate
# Sequence (O95342 whole entry): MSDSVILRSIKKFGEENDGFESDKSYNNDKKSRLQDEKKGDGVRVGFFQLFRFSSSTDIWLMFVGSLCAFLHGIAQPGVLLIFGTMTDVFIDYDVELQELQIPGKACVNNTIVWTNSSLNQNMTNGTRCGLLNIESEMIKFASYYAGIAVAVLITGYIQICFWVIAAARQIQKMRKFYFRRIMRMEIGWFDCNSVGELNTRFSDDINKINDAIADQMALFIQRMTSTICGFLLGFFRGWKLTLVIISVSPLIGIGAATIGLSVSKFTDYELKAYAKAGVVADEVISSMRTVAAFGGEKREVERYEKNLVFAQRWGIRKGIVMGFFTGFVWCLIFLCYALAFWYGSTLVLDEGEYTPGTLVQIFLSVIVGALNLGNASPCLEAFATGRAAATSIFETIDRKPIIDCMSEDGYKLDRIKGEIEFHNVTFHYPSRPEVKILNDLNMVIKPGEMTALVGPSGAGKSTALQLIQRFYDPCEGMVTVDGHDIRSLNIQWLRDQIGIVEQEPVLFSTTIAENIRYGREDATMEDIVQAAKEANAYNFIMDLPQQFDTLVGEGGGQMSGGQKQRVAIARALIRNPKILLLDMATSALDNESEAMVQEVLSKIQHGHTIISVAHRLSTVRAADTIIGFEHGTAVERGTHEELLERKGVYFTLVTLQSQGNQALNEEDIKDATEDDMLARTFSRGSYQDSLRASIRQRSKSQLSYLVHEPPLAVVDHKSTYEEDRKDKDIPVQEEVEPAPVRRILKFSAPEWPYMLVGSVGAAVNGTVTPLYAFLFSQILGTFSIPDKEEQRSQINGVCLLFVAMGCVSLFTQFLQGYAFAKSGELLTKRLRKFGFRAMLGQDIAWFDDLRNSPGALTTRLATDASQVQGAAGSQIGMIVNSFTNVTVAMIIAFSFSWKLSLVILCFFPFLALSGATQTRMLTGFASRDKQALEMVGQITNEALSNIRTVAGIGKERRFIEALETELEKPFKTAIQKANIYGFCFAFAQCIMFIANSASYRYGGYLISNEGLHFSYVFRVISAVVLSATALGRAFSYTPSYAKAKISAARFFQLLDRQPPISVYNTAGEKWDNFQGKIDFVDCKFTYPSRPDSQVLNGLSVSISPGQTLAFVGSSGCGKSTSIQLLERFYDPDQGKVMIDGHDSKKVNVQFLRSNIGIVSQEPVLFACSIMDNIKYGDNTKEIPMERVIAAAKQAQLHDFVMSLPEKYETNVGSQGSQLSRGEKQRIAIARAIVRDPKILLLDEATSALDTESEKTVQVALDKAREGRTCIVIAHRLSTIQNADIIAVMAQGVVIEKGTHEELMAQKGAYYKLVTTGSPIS
# testProtocol: Bile Salt Export Pump (BSEP) Assay, Sf9 insect cell vesicles expressing BSEP
# Assay type: in vitro ADME
# conditionDescription: 10 μM test compound, probe substrate 1 μM [3H]-taurocholic acid, 15 min incubation

Solved entries (count: 2):
compound | testedTarget | parameter | result
Cc1noc(C2CN(c3ccc(C4(C(=O)O)CC4)cc3)C2)c1NC(=O)O[C@H](C)c1ccccc1 | BSEP (Homo sapiens) | inhibition at 0.25 h, 10 µM | 25 to 50%
Cc1noc(C2CCN(c3ccc(C4(C(=O)O)CC4)cc3)CC2)c1C(O)CCCc1ccccc1 (stereo not drawn) | BSEP (Homo sapiens) | inhibition at 0.25 h, 10 µM | 75 to 100%

Field inhibition at 0.25 h, 10 µM (entry C[C@@H](OC(=O)Nc1cc(Cl)sc1C1CCN(c2ccc(C3(C(=O)O)CC3)cc2)CC1)c1ccccc1 ) reads 75 to 100%

* * *

# testedTarget: UniProtKB Q92633
# testProtocol: Ca2+ Flux Assay (B103 cells stably expressing hLPAR1)
# conditionDescription: LPA-induced calcium release, Fura-2 AM, compound 20 min at RT
parameter: IC50

smi | parameter | result
COCc1ccccc1[C@H](C)OC(=O)Nc1c(C2CCN(c3ccc(C4(C(=O)O)CC4)cc3)CC2)nnn1C | IC50 | < 10 nM

Turning now to a further record.
Field IC50 (entry Cc1noc(C2CCN(c3ccc(C4(C(=O)O)CC4)cc3)CC2)c1NC(=O)OCC1CC1 ) reads 10 to 200 nM

* * *

# testedTarget: hLPAR1 (Homo sapiens, UniProt Q92633)
# testProtocol: Ca2+ Flux Assay (B103 cells stably expressing hLPAR1)
# conditionDescription: LPA-induced calcium release, Fura-2 AM, compound 20 min at RT
parameter: IC50

compound | testedTarget | result
COC(=O)C(C)(C)S(=O)(=O)NC(=O)C1(c2ccc(N3CCC(c4onc(C)c4NC(=O)O[C@H](C)c4ccccc4)CC3)cc2)CC1 | hLPAR1 (Homo sapiens, UniProt Q92633) | < 10 nM

Field IC50 (entry Cc1noc([C@H]2CCN(c3ccc(C4(C(=O)O)CC4)cc3)[C@@H](C)C2)c1NC(=O)O[C@H](C)c1ccccc1 (single isomer, unassigned) ) reads 10 to 200 nM

Field IC50 (entry Cc1ncnc(C2CCN(c3ccc(C4(C(=O)O)CC4)cc3)CC2)c1NC(=O)O[C@H](C)c1ccccc1 ) reads 200 to 3000 nM

* * *

# testedTarget: BSEP (Homo sapiens)
# Construct: ATP-dependent uptake of radiolabelled probe substrate
# testProtocol: Bile Salt Export Pump (BSEP) Assay, Sf9 insect cell vesicles expressing BSEP
# Type: in vitro ADME
# conditionDescription: 10 μM test compound, probe substrate 1 μM [3H]-taurocholic acid, 15 min incubation
Below is a list of entries, each paired with its recorded inhibition at 0.25 h, 10 µM value.

Field inhibition at 0.25 h, 10 µM (entry Cc1noc(C2CCN(c3ccc(C4(C(=O)O)CC4)nc3)CC2)c1NC(=O)O[C@H](C)c1ccccc1 ) reads 25 to 50%

Field inhibition at 0.25 h, 10 µM (entry C[C@@H](OC(=O)Nc1c(C2CCN(c3ccc(C4(C(=O)NS(=O)(=O)CC(=O)O)CC4)cc3)CC2)nnn1C)c1ccccc1 ) reads ≤ 25%

Field inhibition at 0.25 h, 10 µM (entry Cc1nsc(C2CCN(c3ccc(C4(C(=O)NS(=O)(=O)C(F)(F)F)CC4)cc3)CC2)c1NC(=O)O[C@H](C)c1ccccc1 ) reads 75 to 100%

Field inhibition at 0.25 h, 10 µM (entry Cc1noc(N2CCC(c3ccc(C4(C(=O)O)CC4)cc3)CC2)c1NC(=O)O[C@H](C)c1ccccc1 ) reads 50 to 75%

Field inhibition at 0.25 h, 10 µM (entry Cc1nc(C2(C(=O)O)CC2)ccc1N1CCC(c2onc(C)c2NC(=O)O[C@H](C)c2ccccc2)CC1 ) reads 25 to 50%

Field inhibition at 0.25 h, 10 µM (entry Cc1noc(C2CCN(c3ccc(C4(C(=O)NS(=O)(=O)CCCO)CC4)cc3)CC2)c1NC(=O)O[C@H](C)c1ccccc1 ) reads ≤ 25%

Field inhibition at 0.25 h, 10 µM (entry COc1ccc(C2CCN(c3ccc(C4(C(=O)O)CC4)cc3)CC2)c(NC(=O)O[C@H](C)c2ccccc2)c1 ) reads 50 to 75%

Field inhibition at 0.25 h, 10 µM (entry Cc1noc(C2CCN(c3ccc(C4(C(=O)NS(=O)(=O)C(C)(C)C(=O)O)CC4)cc3)CC2)c1NC(=O)O[C@H](C)c1ccccc1 ) reads 25 to 50%

Field inhibition at 0.25 h, 10 µM (entry C[C@@H](OC(=O)Nc1ccsc1C1CCN(c2ccc(C3(C(=O)O)CC3)cc2)CC1)c1ccccc1 ) reads 50 to 75%

Field inhibition at 0.25 h, 10 µM (entry C[C@@H](OC(=O)Nc1c(C2CCN(c3ccc(C4(C(=O)NS(=O)(=O)CCO)CC4)cc3)CC2)nnn1C)c1ccccc1 ) reads ≤ 25%

Field inhibition at 0.25 h, 10 µM (entry CNS(=O)(=O)NC(=O)C1(c2ccc(N3CCC(c4onc(C)c4NC(=O)O[C@H](C)c4ccccc4)CC3)cc2)CC1 ) reads 50 to 75%

Field inhibition at 0.25 h, 10 µM (entry CNC(=O)C1(c2ccc(N3CCC(c4onc(C)c4NC(=O)O[C@H](C)c4ccccc4)CC3)cc2)CC1 ) reads 50 to 75%

Field inhibition at 0.25 h, 10 µM (entry Cc1noc(C2CCN(c3ccc(C4(C(=O)O)CC4)cc3)CC2)c1NC(=O)O[C@H](C)c1ccccc1Cl ) reads 50 to 75%

Field inhibition at 0.25 h, 10 µM (entry Cc1noc(C2CCN(c3ccc(C4(C(=O)NS(=O)(=O)CC(=O)O)CC4)cc3)CC2)c1NC(=O)O[C@H](C)c1ccccc1 ) reads 25 to 50%
